Reported values of EPF Score for individual entries
- Test system: EpiDerm™ inserts
- assay_name: UVB induced sun burn cell (SBC) formation using EpiDerm
- Type: cell-based
- measurement_setup: Example 7; 1 mM
# answer = number (no unit)

// lookup EPF Score for O=C(O)CCCC[C@@H]1CCSS1 (racemic) 8

Entry to check: COC1=C(OC)C(=O)C(C/C=C(\C)CC/C=C(\C)CC/C=C(\C)CC/C=C(\C)CC/C=C(\C)CC/C=C(\C)CC/C=C(\C)CC/C=C(\C)CC/C=C(\C)CCC=C(C)C)=C(C)C1=O 13

Moving on to c1coc(CNc2ncnc3[nH]cnc23)c1 18

O=C1O[C@H]([C@@H](O)CO)C(O)=C1O , same question. 9

Next up: COc1cc(/C=C/C(=O)O)ccc1O 18

###

- System: IL-6
- assay_name: UVB induced IL-6 release in NHEKs (ELISA)
- Type: cell-based, Human
- measurement_setup: Example 8 (8A), IL-6; 1 μM
// EPF Score lookup, one value per entry
Answer field: number only, no words.

// below: answered molecules
molecule	quantitative_result
COc1cc(/C=C/C(=O)O)ccc1O [Ferulic acid]	16
c1coc(CNc2ncnc3[nH]cnc23)c1 [Kinetin]	16

Record request: EPF Score value, item O=C1O[C@H]([C@@H](O)CO)C(O)=C1O [Vitamin C, ascorbic acid] 4

Next up: COC1=C(OC)C(=O)C(C/C=C(\C)CC/C=C(\C)CC/C=C(\C)CC/C=C(\C)CC/C=C(\C)CC/C=C(\C)CC/C=C(\C)CC/C=C(\C)CC/C=C(\C)CCC=C(C)C)=C(C)C1=O [Ubiquinone] 10

Now consider O=C(O)CCCC[C@@H]1CCSS1 (racemic) [Lipoic acid] . 14

###

- assay_name: Radical scavenging capacity (oxidation of ABTS by metmyoglobin)
- Type: biochemical
- measurement_setup: lowest effective concentration, OD 750 nm
Quick list: Effective and oxidant conc per entry.

compound	Effective and oxidant conc
O=C(O)CCCC[C@@H]1CCSS1 (racemic)	>3 mM
O=C1O[C@H]([C@@H](O)CO)C(O)=C1O	0.03 mM
COc1cc(/C=C/C(=O)O)ccc1O	0.03 mM

GET /values?readout=Effective and oxidant conc&item= COC1=C(OC)C(=O)C(C/C=C(\C)CC/C=C(\C)CC/C=C(\C)CC/C=C(\C)CC/C=C(\C)CC/C=C(\C)CC/C=C(\C)CC/C=C(\C)CC/C=C(\C)CCC=C(C)C)=C(C)C1=O >3 mM
